# IC50 per record follows
# assayed system: HER2 (Homo sapiens, UniProt P04626)
# Construct: a human breast tumor cell line which expresses high levels of HER2 kinase; endogenous in cells
# Sequence (P04626 23-1255): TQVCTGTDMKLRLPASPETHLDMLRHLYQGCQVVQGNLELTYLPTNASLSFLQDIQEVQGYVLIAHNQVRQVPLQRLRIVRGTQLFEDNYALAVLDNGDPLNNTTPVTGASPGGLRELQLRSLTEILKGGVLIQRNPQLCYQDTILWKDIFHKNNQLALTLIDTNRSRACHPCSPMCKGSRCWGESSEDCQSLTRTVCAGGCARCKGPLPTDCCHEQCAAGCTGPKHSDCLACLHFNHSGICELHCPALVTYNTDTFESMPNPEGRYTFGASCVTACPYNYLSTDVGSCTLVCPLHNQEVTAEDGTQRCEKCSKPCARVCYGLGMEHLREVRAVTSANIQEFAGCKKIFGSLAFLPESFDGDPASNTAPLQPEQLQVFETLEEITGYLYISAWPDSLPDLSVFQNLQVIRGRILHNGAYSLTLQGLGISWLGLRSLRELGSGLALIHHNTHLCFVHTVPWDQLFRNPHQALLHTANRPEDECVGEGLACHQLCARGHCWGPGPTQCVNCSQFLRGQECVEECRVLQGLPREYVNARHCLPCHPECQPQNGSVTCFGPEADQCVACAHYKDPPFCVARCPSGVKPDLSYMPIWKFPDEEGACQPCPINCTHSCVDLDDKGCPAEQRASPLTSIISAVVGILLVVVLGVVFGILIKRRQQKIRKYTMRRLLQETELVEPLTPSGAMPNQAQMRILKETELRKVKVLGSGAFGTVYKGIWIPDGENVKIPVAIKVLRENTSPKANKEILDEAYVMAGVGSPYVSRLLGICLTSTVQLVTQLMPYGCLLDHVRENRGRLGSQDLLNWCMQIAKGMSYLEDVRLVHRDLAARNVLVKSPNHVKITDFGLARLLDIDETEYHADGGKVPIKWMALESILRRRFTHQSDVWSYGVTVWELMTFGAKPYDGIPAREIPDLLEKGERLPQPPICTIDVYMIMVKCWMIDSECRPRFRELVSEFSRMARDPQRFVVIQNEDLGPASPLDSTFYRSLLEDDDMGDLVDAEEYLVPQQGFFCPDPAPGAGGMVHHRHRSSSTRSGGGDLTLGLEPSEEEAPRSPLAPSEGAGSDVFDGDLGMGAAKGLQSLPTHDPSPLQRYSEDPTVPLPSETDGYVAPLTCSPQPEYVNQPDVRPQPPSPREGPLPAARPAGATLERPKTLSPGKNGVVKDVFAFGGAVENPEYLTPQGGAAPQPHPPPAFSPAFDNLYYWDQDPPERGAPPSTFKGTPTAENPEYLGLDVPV
# method: HER2-BT474 whole cell ELISA
# test context: BT-474 cells
Hi! Could you send only the number? It should be in nM, unit omitted.

Consider the worked cases shown below.
CC(C)(C)c1cc(/C=C(\C#N)S(=O)(=O)Cc2cccc(C(F)(F)F)c2)cc(C(C)(C)C)c1O [Compound 735] ... 300
CC(C)c1cc(/C=C(\C#N)S(=O)(=O)c2ccccc2)cc(C(C)C)c1O [Compound 731] ... 300
CC(C)(C)c1cc(/C=C(\C#N)S(=O)(=O)c2ccc(F)cc2)cc(C(C)(C)C)c1O [Compound 740] ... 400
CC(C)c1cc(/C=C(\C#N)S(=O)(=O)NCc2ccccc2)cc(C(C)C)c1O [Compound 732] ... 1900
CC(C)(C)c1cc(/C=C(\C#N)S(=O)(=O)c2cccs2)cc(C(C)(C)C)c1O [Compound 742] ... 200

Reported IC50 for N#C/C(=C\c1ccc(O)c(O)c1)S(=O)(=O)c1cccs1 [Compound 743] was 12600

Reported IC50 for Cc1cc(/C=C(\C#N)S(=O)(=O)Cc2cccc(C(F)(F)F)c2)cc(C)c1O [Compound 739] was 4100

Reported IC50 for Cc1cc(/C=C(\C#N)S(=O)(=O)c2ccc(F)cc2)cc(C)c1O [Compound 744] was 4500
